Reported fold change is given for each of the following compounds.
Experiment: p16 Derepression/Induction Secondary Assay for qHTS Assay for Epigenetic Modulators
Settings: H358 cells, p16 mRNA RT-qPCR, 72 h; hits give high values
Form: value (number only, do not type unit).

As a guide, the following entries are already answered.
Nc1ncn([C@H]2C[C@H](O)[C@@H](CO)O2)c(=O)n1 ... 351
CC(C)C(=O)NC(c1ccc(N(C)C)cc1)c1ccc2cccnc2c1O (configuration not stated) ... 0.4
O=Nc1ccc(O)c2ncccc12 ... 2
COc1ccc(C(NC(=O)C(C)C)c2ccc3cccnc3c2O)cc1 (configuration not stated) ... 1
CC(C)C(=O)NC(c1ccco1)c1ccc2cccnc2c1O (configuration not stated) ... 1
O=C(CSc1cccc2cccnc12)NCc1ccccc1 ... 1

Now consider the entry below.
## Input fold change for CC(C)C(=O)NC(c1ccco1)c1cc([N+](=O)[O-])c2cccnc2c1O (configuration not stated) ?
## Output 2
